# Experimental System: SARS-COV2-S1 RBD (mouse IgG2Fc tag) (SARS-CoV-2, UniProt P0DTC2 319-537)
# Method Notes: FACS, blocks S1 RBD-mFc binding to ACE2 on Vero E6
pIC50: −log10 of the molar value.
Form field: pIC50 (one value per entry).
Measured Parameter: pIC50

INSERT INTO measurements (binder, measured_parameter, endpoint_value) VALUES
  ('variant 2-5 (antibody, V domains shown) VH: EVQLLESGGGLVQPGGSLRLSCAASGFTFSDFAMAWVRQAPGKGLEWVSAISGSGDITYYADSVKGRFTISRDNSKNTLYLQMNSLRAEDTAVYYCAREADGLHSPWHFDLWGQGTLVTVSS VL: DIQMTQSPSSLSASVGDRVTITCRASQSIHTYLNWYQQKPGKAPKLLIYAASALASGVPSRFSGSGSGTDFTLTISSLQPEDFATYYCQQSYSAPPYTFGQGTKVEIK', 'pIC50', 8.67),
  ('variant 5-34 (Fc fusion) VHH: EVQLVESGGGLVQPGGSLRLSCAASGRTFSRYIMGWFRQAPGKEREFVAAISWSGGDNTYYADSVKGRFTISADNSKNTAYLQMNSLKPEDTAVYYCAAYRIVVGGTSPGDWRWGQGTLVTVSS', 'pIC50', 8.92),
  ('variant 5-1 (Fc fusion) VHH: EVQLVESGGGLVQPGGSLRLSCAASGGTFSSIGMGWFRQAPGKEREFVAAISWDGGATAYADSVKGRFTISADNSKNTAYLQMNSLKPEDTAVYYCAKEDVGKPFDWGQGTLVTVSS', 'pIC50', 9.12);

Hey, just so you know, these numbers are from patent US20210355194A1.
